Origin of the recorded values: patent US20170298113A1

- target: human somatostatin receptor subtype SSTR5 (human) (UniProt P35346)
- Sequence (P35346 whole entry): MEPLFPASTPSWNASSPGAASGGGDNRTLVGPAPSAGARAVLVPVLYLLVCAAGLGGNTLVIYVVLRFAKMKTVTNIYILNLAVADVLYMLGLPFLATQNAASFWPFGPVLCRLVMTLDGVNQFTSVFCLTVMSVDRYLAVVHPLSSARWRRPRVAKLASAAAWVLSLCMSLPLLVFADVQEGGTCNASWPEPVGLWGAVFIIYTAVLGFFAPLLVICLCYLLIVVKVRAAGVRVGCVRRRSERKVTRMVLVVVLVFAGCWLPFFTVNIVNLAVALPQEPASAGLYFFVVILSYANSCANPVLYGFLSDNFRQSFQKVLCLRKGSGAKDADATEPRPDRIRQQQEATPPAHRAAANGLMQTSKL
- assaySummary: FACS, transfected HEK-293 cells; row normalised to highest
*1 amine or outer side, *2 acyl side, *3 side chain or, on linkers, in order; H or OH if unused. Bridges are numbered along the chain shown (N, C = ends). Primed or numbered codes have the meaning given here. [ ]: non-standard residue; d: D form. N(2-mercaptoethyl)Gly = O=C(CN(CCS[*:3])[*:1])[*:2]; FITC′ = fluorescein isothiocyanate; Orn = NCCC[C@H](N)C(=O)O; Aib = CC(C)(N)C(=O)O; GABA = NCCCC(=O)O
Label 1.0 when Adjusted binding affinity < 0.6; otherwise 0.0.

Example entries begin here.
1) {FITC′-GABA}-[dF]RCY[dW]KTF[N(2-mercaptoethyl)Gly]-NH2 (disulfide 3-9) [Compound 6] ... 1.0
2) {FITC′-GABA}-[dF]RCF[dW]KTF[N(2-mercaptoethyl)Gly]-NH2 (disulfide 3-9) [Compound 2] ... 0.0
3) XCFWXKTFX (FITC-GABA-DPhe-Cys*-Phe-Trp-DTrp-Lys-Thr-Phe-GlyS2*-NH2 (* = S-S bond; GlyS2 = N-thioethyl glycine; FITC-GABA on the N-terminal amine; C-terminal amide)) [Compound 1] ... 0.0
4) {FITC′-GABA}-[dF]CFW[dW][Aib]TF[N(2-mercaptoethyl)Gly]-NH2 (disulfide 2-9) [Compound 13] ... 0.0
5) {FITC′-GABA}-[dF]CYW[dW]KTF[N(2-mercaptoethyl)Gly]-NH2 (disulfide 2-9) [Compound 4] ... 1.0
6) XCFWXXTFX (FITC-GABA-DPhe-Cys*-Phe-Trp-DTrp-LysAc-Thr-Phe-GlyS2*-NH2 (* = S-S bond; LysAc = acetyllysine; GlyS2 = N-thioethyl glycine; C-terminal amide)) [Compound 14] ... 0.0
7) XCFWXXTFX (FITC-GABA-DPhe-Cys*-Phe-Trp-DTrp-HomoLys-Thr-Phe-GlyS2*-NH2 (* = S-S bond; HomoLys = homolysine; GlyS2 = N-thioethyl glycine; C-terminal amide)) [Compound 16] ... 1.0
8) {FITC′-GABA}-[dF]RCF[dW][Orn]TF[N(2-mercaptoethyl)Gly]-NH2 (disulfide 3-9) [Compound 5] ... 1.0

## Input Please state whether Adjusted binding affinity is below 0.6 for {FITC′-GABA}-[dF]CY[dW][Orn]TF[N(2-mercaptoethyl)Gly]-NH2 (disulfide 2-8) [Compound 7]
## Output 1.0

## Input Criterion: Adjusted binding affinity strictly below 0.6. Is it met by {FITC′-GABA}-[dF]CRFF[dW]KTF[N(2-mercaptoethyl)Gly]-NH2 (disulfide 2-10) [Compound 8] ?
## Output 0.0

## Input Hi there! Is Adjusted binding affinity for XXFWXKTFX (FITC-GABA-DPhe-HCys*-Phe-Trp-DTrp-Lys-Thr-Phe-GlyS2*-NH2 (* = S-S bond; HCys = homocysteine; GlyS2 = N-thioethyl glycine; C-terminal amide)) [Compound 11] below 0.6, do you know?
## Output 0.0

## Input Quick check: does {FITC′-GABA}-[dF]CFW[dW]RTF[N(2-mercaptoethyl)Gly]-NH2 (disulfide 2-9) [Compound 15] have Adjusted binding affinity under 0.6?
## Output 1.0
